experiment: Drug uptake in mouse serum at 600 mg/kg, po measured at 60 mins by UPLC-MS/MS method; format: ADME, organism-based; settings: read-out: Drug uptake
propertyMeasured: concentration at 1 h (nM)
Numbers only, in nM.

Quick one: concentration at 1 h of "CC(=O)O[C@H]1C[C@H]2[C@@H]([C@H](OC(C)=O)C[C@@H]3C[C@H](N)CC[C@@]32C)[C@@H]2CC[C@H]([C@H](C)CCCNCCCCNc3ccnc4cc(Cl)ccc34)[C@@]12C" ?
2500

* * *

test: Drug uptake in mouse serum at 400 mg/kg, po measured at 15 mins by UPLC-MS/MS method; assay type: ADME, organism-based; settings: read-out: Drug uptake
propertyMeasured: concentration at 0.25 h (µM)
Numbers only, in µM.

Data request, read-out concentration at 0.25 h, for "CC(=O)O[C@H]1C[C@H]2[C@@H]([C@H](OC(C)=O)C[C@@H]3C[C@H](N)CC[C@@]32C)[C@@H]2CC[C@H]([C@H](C)CCCNCCCCNc3ccnc4cc(Cl)ccc34)[C@@]12C"
3.3

* * *

For each of the compounds below, state its Activity.
molecular target: Botulinum neurotoxin type A (Clostridium botulinum) (UniProt P0DPI0); experiment: Inhibition of Clostridium botulinum BoNT/A holotoxin-mediated SNAP-25 cleavage in mouse HBG3 cell-derived motor neurons assessed as full length of SNAP-25 at 20 uM treated at 30 mins post intoxication by Western blot method relative to control; parameters: scale not given: the % may be the effect or the level left
Give bare numbers, in %.

In the examples that follow, each entry is paired with its recorded Activity.
| compound | Activity, % |
| --- | --- |
| CC(=O)O[C@H]1C[C@H]2[C@@H]([C@H](OC(C)=O)C[C@@H]3C[C@H](N)CC[C@@]32C)[C@@H]2CC[C@H]([C@H](C)CCCNCCCCNc3ccnc4cc(Cl)ccc34)[C@@]12C | 64 |
| N#Cc1ccc(-c2ccc(-c3ccc(CNCCCCCCCCNc4ccnc5ccccc45)cc3)s2)cc1 | 20 |
| CC(CCN(C)CC12CC3CC(CC(C3)C1)C2)Nc1ccnc2cc(Cl)ccc12 (centres undefined) | 15 |

Given the compound "CC(=O)O[C@H]1C[C@H]2[C@@H]([C@H](OC(C)=O)C[C@@H]3C[C@H](NCCCCCCNc4ccnc5cc(Cl)ccc45)CC[C@@]32C)[C@@H]2CC[C@H]([C@H](C)CCCNCCCCCCNc3ccnc4cc(Cl)ccc34)[C@@]12C" , what is its reported Activity?
36

* * *

test system: Mus musculus; assay: Cmax in mouse at 400 mg/kg, po by UPLC-MS/MS method; assay type: ADME, organism-based; parameters: dose 400 mg/kg, route oral; conditions: in vivo
propertyMeasured: Cmax
Include the unit after the number when you answer.

// Cmax lookup, key: "CC(=O)O[C@H]1C[C@H]2[C@@H]([C@H](OC(C)=O)C[C@@H]3C[C@H](N)CC[C@@]32C)[C@@H]2CC[C@H]([C@H](C)CCCNCCCCNc3ccnc4cc(Cl)ccc34)[C@@]12C"
7.8 µM

* * *

assay: Drug uptake in mouse serum at 400 mg/kg, po measured at 45 mins by UPLC-MS/MS method; type: ADME, organism-based; conditions: read-out: Drug uptake
propertyMeasured: concentration at 0.75 h

Form field: reported concentration at 0.75 h of "CC(=O)O[C@H]1C[C@H]2[C@@H]([C@H](OC(C)=O)C[C@@H]3C[C@H](N)CC[C@@]32C)[C@@H]2CC[C@H]([C@H](C)CCCNCCCCNc3ccnc4cc(Cl)ccc34)[C@@]12C"
3.3 µM

* * *

molecular target: Cytochrome P450 3A4 (Homo sapiens, UniProt P08684); test: Inhibition of CYP3A4 (unknown origin) using BFC as substrate; type: ADME
Sequence (P08684 whole entry): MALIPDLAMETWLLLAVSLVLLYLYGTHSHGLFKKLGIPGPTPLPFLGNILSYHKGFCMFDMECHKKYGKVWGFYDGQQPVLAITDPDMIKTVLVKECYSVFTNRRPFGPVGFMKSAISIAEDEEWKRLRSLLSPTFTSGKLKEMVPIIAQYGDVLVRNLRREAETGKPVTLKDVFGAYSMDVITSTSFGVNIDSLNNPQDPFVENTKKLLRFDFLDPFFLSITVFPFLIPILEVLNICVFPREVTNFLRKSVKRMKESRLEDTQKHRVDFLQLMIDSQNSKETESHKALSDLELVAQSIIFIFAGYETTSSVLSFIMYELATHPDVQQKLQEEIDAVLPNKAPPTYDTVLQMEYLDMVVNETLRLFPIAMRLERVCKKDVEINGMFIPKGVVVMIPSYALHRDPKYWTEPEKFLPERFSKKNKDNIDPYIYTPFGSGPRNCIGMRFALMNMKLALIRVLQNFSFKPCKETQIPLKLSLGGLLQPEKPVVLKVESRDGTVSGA
propertyMeasured: pIC50
Numbers only, as −log10 of the molar value.

Reported pIC50, molecule "CC(=O)O[C@H]1C[C@H]2[C@@H]([C@H](OC(C)=O)C[C@@H]3C[C@H](N)CC[C@@]32C)[C@@H]2CC[C@H]([C@H](C)CCCNCCCCNc3ccnc4cc(Cl)ccc34)[C@@]12C" : ____
5.85

* * *

assay: Solubility of the compound at pH 7.4 by light scattering-based laser nephelometric method; type: physicochemical; settings: buffer
propertyMeasured: solubility kinetic

Would you kindly share the measured solubility kinetic for "CC(=O)O[C@H]1C[C@H]2[C@@H]([C@H](OC(C)=O)C[C@@H]3C[C@H](N)CC[C@@]32C)[C@@H]2CC[C@H]([C@H](C)CCCNCCCCNc3ccnc4cc(Cl)ccc34)[C@@]12C" ?
> 50 µg/mL

* * *

test: Drug uptake in mouse serum at 400 mg/kg, po measured at 60 mins by UPLC-MS/MS method; type: ADME, organism-based; settings: read-out: Drug uptake
propertyMeasured: concentration at 1 h (nM)
Give bare numbers, in nM.

# input compound: "CC(=O)O[C@H]1C[C@H]2[C@@H]([C@H](OC(C)=O)C[C@@H]3C[C@H](N)CC[C@@]32C)[C@@H]2CC[C@H]([C@H](C)CCCNCCCCNc3ccnc4cc(Cl)ccc34)[C@@]12C" ; wanted: its concentration at 1 h
2800

* * *

Field: Activity. Provide a value for each of the molecules that follow.
target: Botulinum neurotoxin type A (Clostridium botulinum) (UniProt P0DPI0); experiment: Inhibition of Clostridium botulinum BoNT/A holotoxin-mediated SNAP-25 cleavage in mouse HBG3 cell-derived motor neurons assessed as full length of SNAP-25 at 10 uM preincubated for 30 mins followed by intoxication measured after 4 hrs by Western blot method relative to control; set-up: scale not given: the % may be the effect or the level left
Give bare numbers, in %.

Provide each entry's Activity from the list below.
1. CC(CCNCCC12CC3CC(CC(C3)C1)C2)Nc1c(F)cnc2cc(Cl)ccc12 (configuration not stated)
2. CC(CCNCC12CC3CC(CC(C3)C1)C2)Nc1c(F)cnc2cc(Cl)ccc12 (configuration not stated)
3. CN(CCCCCCCCNc1ccnc2ccccc12)Cc1ccc(-c2ccc(-c3ccc(C#N)cc3)s2)cc1
4. CC(CCN(C)CC12CC3CC(CC(C3)C1)C2)Nc1ccnc2cc(Cl)ccc12 (configuration not stated)
5. CN(CCCNc1ccnc2ccccc12)CC12CC3CC(CC(C3)C1)C2

30
31
54
63
30

Dear colleague, could you please provide Activity for the molecules listed below?
1. CC(=O)O[C@H]1C[C@H]2[C@@H]([C@H](OC(C)=O)C[C@@H]3C[C@H](N)CC[C@@]32C)[C@@H]2CC[C@H]([C@H](C)CCCNCCCCNc3ccnc4cc(Cl)ccc34)[C@@]12C
2. CC(=O)O[C@H]1C[C@H]2[C@@H]([C@H](OC(C)=O)C[C@@H]3C[C@H](N)CC[C@@]32C)[C@@H]2CC[C@H]([C@H](C)CCCN(C)CCCC(C)Nc3ccnc4ccccc34)[C@@]12C (mixture of isomers)

[72, 20]

* * *

target: Botulinum neurotoxin type A (Clostridium botulinum) (UniProt P0DPI0); assay: Inhibition of Clostridium botulinum BoNT/A light chain at 20 uM using P39 as substrate preincubated for 10 mins followed by substrate addition measured after 10 mins by HPLC method relative to control
Task for the reader: assign each of the following compounds its reported inhibition.
Answers are plain numbers, in %.

| compound | outputUnit | val |
| --- | --- | --- |
| CC(CCN(C)CC12CC3CC(CC(C3)C1)C2)Nc1ccnc2cc(Cl)ccc12 (stereo not drawn) | % | 67 |
| CN(CCCNc1ccnc2ccccc12)CC12CC3CC(CC(C3)C1)C2 | % | 30 |

The following compounds each have a reported value; give each one's inhibition.
1. CC(CCNCCC12CC3CC(CC(C3)C1)C2)Nc1c(F)cnc2cc(Cl)ccc12 (stereo not drawn)
2. Fc1ccc2scc(-c3ccc(CNCCCCNc4ccnc5ccccc45)cc3)c2c1
3. CC(CCCNc1ccnc2ccccc12)NCc1ccc(-c2csc3ccc(F)cc23)cc1 (stereo not drawn)
4. N#Cc1ccc2c(-c3ccc(CNCCCCNc4ccnc5ccccc45)cc3)csc2c1
5. CN(CCCCNc1ccnc2ccccc12)Cc1ccc(-c2csc3ccc(F)cc23)cc1

1. 2
2. 34
3. 75
4. 23
5. 46

Return reported inhibition values for all items listed beneath this line.
1. CC(=O)O[C@H]1C[C@H]2[C@@H]([C@H](OC(C)=O)C[C@@H]3C[C@H](N)CC[C@@]32C)[C@@H]2CC[C@H]([C@H](C)CCCN(C)CCCC(C)Nc3ccnc4ccccc34)[C@@]12C (mixture of isomers)
2. N#Cc1ccc(-c2ccc(-c3cccc(CNCCCCCCNc4ccnc5ccccc45)c3)s2)cc1
3. CC(=O)O[C@H]1C[C@H]2[C@@H]([C@H](OC(C)=O)C[C@@H]3C[C@H](N)CC[C@@]32C)[C@@H]2CC[C@H]([C@H](C)CCCNC(C)CCCNc3ccnc4ccccc34)[C@@]12C (mixture of isomers)
4. CC(CCNCC12CC3CC(CC(C3)C1)C2)Nc1c(F)cnc2cc(Cl)ccc12 (stereo not drawn)
5. N#Cc1ccc(-c2ccc(-c3ccc(CNCCCCCCCCNc4ccnc5ccccc45)cc3)s2)cc1
6. N#Cc1ccc2scc(-c3ccc(CNCCCCNc4ccnc5ccccc45)cc3)c2c1
7. CC(CCNc1ccnc2cc(Cl)ccc12)NCC12CC3CC(CC(C3)C1)C2 (stereo not drawn)
8. N#Cc1ccc2c(-c3ccc(CNCCCCCCNc4ccnc5ccccc45)cc3)csc2c1

85
68
75
15
77
84
65
8

For every record below, what is its inhibition?
1. CC(=O)O[C@H]1C[C@H]2[C@@H]([C@H](OC(C)=O)C[C@@H]3C[C@H](N)CC[C@@]32C)[C@@H]2CC[C@H]([C@H](C)CCCNCCCC(=O)Nc3ccnc4cc(Cl)ccc34)[C@@]12C
2. C#Cc1ccc(-c2ccc(-c3ccc(CNCCCCCCCCNc4ccnc5ccccc45)cc3)s2)cc1
3. CN(CCCCCCNc1ccnc2ccccc12)Cc1ccc(-c2ccc(-c3ccc(C#N)cc3)s2)cc1
4. N#Cc1ccc(-c2ccc(-c3ccc(CNCCCCCCNc4ccnc5cc(Cl)ccc45)cc3)s2)cc1
5. CC(CCCN(C)Cc1ccc(-c2csc3ccc(F)cc23)cc1)Nc1ccnc2ccccc12 (stereo not drawn)
6. CC(CCNCCC12CC3CC(CC(C3)C1)C2)Nc1ccnc2ccccc12 (stereo not drawn)
7. C[C@H](CCCNCCCCNc1ccnc2cc(Cl)ccc12)[C@H]1CC[C@H]2[C@@H]3[C@H](O)C[C@@H]4C[C@H](N)CC[C@]4(C)[C@H]3C[C@H](O)[C@]12C
8. CN(CCCNc1ccnc2ccccc12)CCC12CC3CC(CC(C3)C1)C2

1. 37
2. 53
3. 55
4. 30
5. 48
6. 42
7. 48
8. 31
